target: T1, recombinant CD28 antigen (extracellular domain, expressed in mammalian cells) (UniProt P10747 19-152, limits assumed); test: SPR (Biacore), CD28 ECD on CM5 chip, Fab as analyte at 50 ug/mL, 1:1 binding mass transfer model
T1 construct: extracellular domain; Immobilized on a CM5 chip by amine coupling; also called T-cell-specific surface glycoprotein CD28
Listed below: kon values for each entry.
Report the value in M⁻¹ s⁻¹ with no unit label.

// query Any idea what kon was measured for chCD28 Fab (chimeric) (Fab, V domains shown, Fab expressed in E. coli periplasm; not shown: Fabs were purified by IMAC) VH: QVQLKESGPGLVAPSQSLSITCTVSGFSLTSYGVHWVRQPPGKGLEWLGVIWAGGSTNYNSALMSRLSISKDNSKSQVFLKMNSLQTDDTAMYYCARDKRAPGKLYYGYPDYWGQGTTLTVSS VL: DIVLTQSPASLAVSLGQRATISCRASESVEYYVTSLMQWYQQKPGQPPKLLIYAASNVESGVPARFSGSGSGTDFSLNIHPVEEDDIAMYFCQQTRKVPSTFGGGTKLEIKR ?
// result 1e+06
